Taken from BigSolDB 2.1.

- Recorded conditions: in methanol, 293.15 K
Quantity name: solubility (mole fraction)

Using the record for O=C(O)CSc1ccc2ccccc2c1 , report its solubility (mole fraction). 0.00102

###

- Recorded conditions: in DMF, 323.15 K
Quantity name: solubility (mole fraction)
Please reply with the number alone, leaving off any unit.

// query solubility (mole fraction) value for entry O=C(O)CSc1ccc2ccccc2c1 0.0135

###

- Recorded conditions: in water, 318.15 K
Quantity name: solubility (mole fraction)
Write the value as a bare number.

What value of solubility (mole fraction) has been reported for the following compound? O=C(O)CSc1ccc2ccccc2c1 7e-06

###

- Recorded conditions: in isopropanol, 308.15 K
Quantity name: solubility (mole fraction)
Format: numeric value only, no unit, no commentary.

// query solubility (mole fraction) value for entry O=C(O)CSc1ccc2ccccc2c1 0.000801

###

- Recorded conditions: in water, 283.15 K
Quantity name: solubility (mole fraction)
Could you respond with only the numeric value?

Reported solubility (mole fraction) for O=C(O)CSc1ccc2ccccc2c1 : what is it? 1.95e-06

###

- Recorded conditions: in DMF, 293.15 K
Quantity name: solubility (mole fraction)

Reported solubility (mole fraction) for O=C(O)CSc1ccc2ccccc2c1 : what is it? 0.00738

###

- Recorded conditions: in ethanol, 318.15 K
Quantity name: solubility (mole fraction)
Lab note: record just the number, no unit beside it.

Recorded solubility (mole fraction) for O=C(O)CSc1ccc2ccccc2c1 , please? 0.00584

###

- Recorded conditions: in isopropanol, 318.15 K
Quantity name: solubility (mole fraction)

Item O=C(O)CSc1ccc2ccccc2c1 has what recorded solubility (mole fraction)? 0.00105

###

- Recorded conditions: in methanol, 313.15 K
Quantity name: solubility (mole fraction)

So what does the record say about solubility (mole fraction) for O=C(O)CSc1ccc2ccccc2c1 ? 0.0018

###

- Recorded conditions: in water, 308.15 K
Quantity name: solubility (mole fraction)

What does the data say about its solubility (mole fraction)? Entry: O=C(O)CSc1ccc2ccccc2c1 5.33e-06

###

- Recorded conditions: in isopropanol, 298.15 K
Quantity name: solubility (mole fraction)
Answer with a bare number; do not write a unit.

Item under review: O=C(O)CSc1ccc2ccccc2c1 . Reported solubility (mole fraction)? 0.00058

###

- Recorded conditions: in ethanol, 288.15 K
Quantity name: solubility (mole fraction)
Returns: the value as a bare number; no unit string appended.

What measured solubility (mole fraction) goes with O=C(O)CSc1ccc2ccccc2c1 ? 0.00234

###

- Recorded conditions: in methanol, 308.15 K
Quantity name: solubility (mole fraction)

Given O=C(O)CSc1ccc2ccccc2c1 , state its recorded solubility (mole fraction). 0.0016

###

- Recorded conditions: in DMF, 288.15 K
Quantity name: solubility (mole fraction)
I only need the number, thanks.

Name the reported solubility (mole fraction) value associated with the molecule O=C(O)CSc1ccc2ccccc2c1 0.0066

###

- Recorded conditions: in water, 298.15 K
Quantity name: solubility (mole fraction)

Please look up its solubility (mole fraction): O=C(O)CSc1ccc2ccccc2c1 3.88e-06

###

- Recorded conditions: in methanol, 288.15 K
Quantity name: solubility (mole fraction)
Just the number, please.

Quick one: solubility (mole fraction) of O=C(O)CSc1ccc2ccccc2c1 ? 0.000828

###

- Recorded conditions: in DMF, 298.15 K
Quantity name: solubility (mole fraction)
Response field accepts a number only; no unit should be typed.

What value of measured solubility (mole fraction) is listed for O=C(O)CSc1ccc2ccccc2c1 ? 0.00828

###

- Recorded conditions: in DMF, 313.15 K
Quantity name: solubility (mole fraction)
Number only, no unit.

Look at this compound and give its reported solubility (mole fraction). O=C(O)CSc1ccc2ccccc2c1 0.0112

###

- Recorded conditions: in isopropanol, 303.15 K
Quantity name: solubility (mole fraction)
The answer should be written as a number, with no unit following it.

For O=C(O)CSc1ccc2ccccc2c1 , what is its reported solubility (mole fraction)? 0.000682

###

- Recorded conditions: in water, 293.15 K
Quantity name: solubility (mole fraction)
The reply should be a number, written without any unit.

Consider the molecule O=C(O)CSc1ccc2ccccc2c1 and give its measured solubility (mole fraction). 3.16e-06

###

- Recorded conditions: in ethanol, 293.15 K
Quantity name: solubility (mole fraction)
Output: the number by itself.

Form field: reported solubility (mole fraction) of O=C(O)CSc1ccc2ccccc2c1 0.00282

###

- Recorded conditions: in isopropanol, 283.15 K
Quantity name: solubility (mole fraction)
Form field (numeric): enter value without unit.

# input molecule: O=C(O)CSc1ccc2ccccc2c1 ; wanted: its solubility (mole fraction) 0.0003

###

- Recorded conditions: in DMF, 308.15 K
Quantity name: solubility (mole fraction)
Answer as a number with no unit attached.

solubility (mole fraction) for O=C(O)CSc1ccc2ccccc2c1 ? 0.0101

###

- Recorded conditions: in isopropanol, 313.15 K
Quantity name: solubility (mole fraction)
# print the numeric value only

I would be grateful if you could share the reported solubility (mole fraction) for O=C(O)CSc1ccc2ccccc2c1 . 0.000919

###

- Recorded conditions: in ethanol, 303.15 K
Quantity name: solubility (mole fraction)
Number, no unit, nothing else.

Requested read-out: solubility (mole fraction). Entry: O=C(O)CSc1ccc2ccccc2c1 0.00394

###

- Recorded conditions: in methanol, 318.15 K
Quantity name: solubility (mole fraction)
API doc: respond with a numeric literal and nothing else, no unit.

Which solubility (mole fraction) value is on record for O=C(O)CSc1ccc2ccccc2c1 ? 0.00204

###

- Recorded conditions: in methanol, 278.15 K
Quantity name: solubility (mole fraction)

# query: solubility (mole fraction) of entry O=C(O)CSc1ccc2ccccc2c1 0.00053

###

- Recorded conditions: in ethanol, 278.15 K
Quantity name: solubility (mole fraction)
Respond numerically, and do not add a unit to the figure.

Return reported solubility (mole fraction); argument: O=C(O)CSc1ccc2ccccc2c1 0.0014

###

- Recorded conditions: in water, 278.15 K
Quantity name: solubility (mole fraction)
Output spec: single numeric token, no unit.

Can you share its solubility (mole fraction)? I mean this compound: O=C(O)CSc1ccc2ccccc2c1 1.42e-06

###

- Recorded conditions: in water, 303.15 K
Quantity name: solubility (mole fraction)
Please respond with just the number, no unit label.

Given the compound O=C(O)CSc1ccc2ccccc2c1 , what is its reported solubility (mole fraction)? 4.53e-06

###

- Recorded conditions: in water, 313.15 K
Quantity name: solubility (mole fraction)
Keep it simple and answer with nothing but the number.

Which solubility (mole fraction) is listed for O=C(O)CSc1ccc2ccccc2c1 ? 6.1e-06

###

- Recorded conditions: in water, 288.15 K
Quantity name: solubility (mole fraction)
Would you mind answering with just the numeric figure?

Looking for the measured solubility (mole fraction) of O=C(O)CSc1ccc2ccccc2c1 , can you help? 2.54e-06

###

- Recorded conditions: in isopropanol, 278.15 K
Quantity name: solubility (mole fraction)
Give a plain numeric answer without units written out.

Consider the compound shown here: O=C(O)CSc1ccc2ccccc2c1 What is its recorded solubility (mole fraction)? 0.000227

###

- Recorded conditions: in methanol, 323.15 K
Quantity name: solubility (mole fraction)
API note: the answer field is a bare number with no unit suffix.

// solubility (mole fraction) lookup, key: O=C(O)CSc1ccc2ccccc2c1 0.00235

###

- Recorded conditions: in isopropanol, 288.15 K
Quantity name: solubility (mole fraction)
Give the value as a plain number.

# input compound: O=C(O)CSc1ccc2ccccc2c1 ; wanted: its solubility (mole fraction) 0.000383

###

- Recorded conditions: in methanol, 298.15 K
Quantity name: solubility (mole fraction)
Simply state the number, no unit and no words.

Can you look up the measured solubility (mole fraction) of O=C(O)CSc1ccc2ccccc2c1 for me? 0.00119
